biological target: human somatostatin receptor SSTR5 (Homo sapiens, UniProt P35346); assay: Binding inhibition of 125I-somatostatin, CHO cell membrane fraction; conditions: 125I-somatostatin binding, 25° C. for 60 minutes, read-out: Activities for human somatostatin receptor (IC50 value) SSTR5
Sequence (P35346 whole entry): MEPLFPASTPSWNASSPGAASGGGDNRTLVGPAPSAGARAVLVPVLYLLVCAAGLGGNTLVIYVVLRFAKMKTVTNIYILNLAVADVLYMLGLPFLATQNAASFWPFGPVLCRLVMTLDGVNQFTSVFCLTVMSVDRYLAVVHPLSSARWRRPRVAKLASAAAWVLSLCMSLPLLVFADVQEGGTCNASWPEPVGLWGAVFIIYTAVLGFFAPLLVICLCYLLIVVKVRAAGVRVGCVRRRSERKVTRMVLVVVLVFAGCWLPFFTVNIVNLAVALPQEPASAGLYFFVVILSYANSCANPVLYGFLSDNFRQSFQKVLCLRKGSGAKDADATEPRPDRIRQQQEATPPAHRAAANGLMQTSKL
IC50 values, listed per item

Solved entries:
| molecule | attribute_measured | obs_value |
| --- | --- | --- |
| CC(C)(C)CN1C(=O)[C@@H](CC(=O)NCc2ccccc2F)O[C@H](c2cccc(CN)c2)c2cc(Cl)ccc21 | IC50 | 600 nM |
| NCc1ccc(C2OC(CC(=O)NCc3ccccc3F)C(=O)N(Cc3ccc(-c4ccccc4)cc3)c3ccc(Cl)cc32)cc1 (stereo not shown) | IC50 | 1 nM |
| NCc1cccc(C2OC(CC(=O)NCc3ccccc3F)C(=O)N(Cc3ccc(O)cc3)c3ccc(Cl)cc32)c1 (stereo not shown) | IC50 | 0.1 nM |

QUERY: Fill in the blank: the reported IC50 of COc1ccc(CN2C(=O)C(CC(=O)NCc3ccccc3F)OC(c3ccc(CN)s3)c3cc(Cl)ccc32)cc1 (stereo not shown) is ____.
RESULT: 7 nM

QUERY: Fill in the blank: the reported IC50 of NCc1cccc(C2OC(CC(=O)NCc3ccccc3F)C(=O)N(Cc3ccc(-c4ccccc4)cc3)c3ccc(Cl)cc32)c1 (stereo not shown) is ____.
RESULT: 0.7 nM

QUERY: Fill in the blank: the reported IC50 of CC(C)(C)CN1C(=O)[C@H](CC(=O)NCc2ccccc2F)O[C@@H](c2cccc(CN)c2)c2cc(Cl)ccc21 is ____.
RESULT: 7 nM

QUERY: Fill in the blank: the reported IC50 of CC(C)(N)c1cccc(C2OC(CC(=O)NCc3ccccc3F)C(=O)N(Cc3ccc(-c4ccccc4)cc3)c3ccc(Cl)cc32)c1 (stereo not shown) is ____.
RESULT: 9 nM

###

Biological target: human somatostatin receptor SSTR5 (Homo sapiens, UniProt P35346)
Experiment: Inhibition of forskolin-stimulated accumulation of cAMP in receptor expression CHO cells
Conditions: forskolin 10 μM, 37° C. for 30 minutes, read-out: Inhibitory effect on forskolin-stimulated accumulation of cAMP (ED50 value) SSTR5
Method: For measurement of the accumulated intracellular adenosine 3′,5′-monophosphate (cAMP), the human somatostatin receptor expression cell strains, SSTR2-HS5-9, SSTR-3-15-19, SSTR4-1-2 and SSTR5-32-4, mentioned in Reference Examples 2-3, 3-3,4-3 and 5-3, respectively, were proliferated in 24-well plate until they were confluent. […] The supernatant was placed in another Eppendorf's tube in quantity of 500 μl and neutralized with 60 mM of a HEPES aqueous solution containing 1.5 M of potassium chloride. […]
attribute_measured: EC50 (nM)
Number in nM, nothing else.

| compound | obs_value |
| --- | --- |
| NCc1cccc(C2OC(CC(=O)NCc3ccccc3F)C(=O)N(Cc3ccc(O)cc3)c3ccc(Cl)cc32)c1 (centres unmarked) | 0.3 |

Alright, here's another compound for you.
QUERY: Fill in the blank: the reported EC50 of NCc1cccc(C2OC(CC(=O)NCc3ccccc3F)C(=O)N(Cc3ccc(-c4ccccc4)cc3)c3ccc(Cl)cc32)c1 (centres unmarked) is ____.
RESULT: 0.7

###

IC50 values, listed per item
molecular target: human somatostatin receptor SSTR1 (Homo sapiens, UniProt P30872); test: Binding inhibition of 125I-somatostatin, CHO cell membrane fraction; settings: 125I-somatostatin binding, 25° C. for 60 minutes, read-out: Activities for human somatostatin receptor (IC50 value) SSTR1
Sequence (P30872 whole entry): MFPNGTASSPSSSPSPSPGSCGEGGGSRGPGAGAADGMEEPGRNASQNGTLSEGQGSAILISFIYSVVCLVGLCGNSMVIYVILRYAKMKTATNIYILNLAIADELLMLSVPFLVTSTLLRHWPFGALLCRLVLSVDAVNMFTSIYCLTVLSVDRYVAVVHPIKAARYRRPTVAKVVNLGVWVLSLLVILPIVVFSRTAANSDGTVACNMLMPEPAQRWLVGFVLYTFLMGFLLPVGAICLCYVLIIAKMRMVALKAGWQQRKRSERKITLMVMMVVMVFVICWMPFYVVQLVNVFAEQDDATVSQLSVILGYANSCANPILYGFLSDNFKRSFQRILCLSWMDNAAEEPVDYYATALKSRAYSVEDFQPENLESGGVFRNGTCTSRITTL
Number in µM, nothing else.

Solved entries:
| compound | unit_tag | IC50 |
| --- | --- | --- |
| CC(C)(C)CN1C(=O)[C@H](CC(=O)NCc2ccccc2F)O[C@@H](c2cccc(CN)c2)c2cc(Cl)ccc21 [Example 25] | µM | 8 |
| NCc1ccc(C2OC(CC(=O)NCc3ccccc3F)C(=O)N(Cc3ccc(-c4ccccc4)cc3)c3ccc(Cl)cc32)cc1 (stereo not drawn) [Example 87] | µM | 0.8 |
| CC(C)(N)c1cccc(C2OC(CC(=O)NCc3ccccc3F)C(=O)N(Cc3ccc(-c4ccccc4)cc3)c3ccc(Cl)cc32)c1 (stereo not drawn) [Example 93] | µM | 0.9 |

QUERY: Fill in the blank: the reported IC50 of CC(C)(C)CN1C(=O)[C@@H](CC(=O)NCc2ccccc2F)O[C@H](c2cccc(CN)c2)c2cc(Cl)ccc21 [Example 26] is ____.
RESULT: 10

###

biological target: human somatostatin receptor SSTR3 (Homo sapiens, UniProt P32745); assay: Inhibition of forskolin-stimulated accumulation of cAMP in receptor expression CHO cells; settings: forskolin 10 μM, 37° C. for 30 minutes, read-out: Inhibitory effect on forskolin-stimulated accumulation of cAMP (ED50 value) SSTR3
Sequence (P32745 whole entry): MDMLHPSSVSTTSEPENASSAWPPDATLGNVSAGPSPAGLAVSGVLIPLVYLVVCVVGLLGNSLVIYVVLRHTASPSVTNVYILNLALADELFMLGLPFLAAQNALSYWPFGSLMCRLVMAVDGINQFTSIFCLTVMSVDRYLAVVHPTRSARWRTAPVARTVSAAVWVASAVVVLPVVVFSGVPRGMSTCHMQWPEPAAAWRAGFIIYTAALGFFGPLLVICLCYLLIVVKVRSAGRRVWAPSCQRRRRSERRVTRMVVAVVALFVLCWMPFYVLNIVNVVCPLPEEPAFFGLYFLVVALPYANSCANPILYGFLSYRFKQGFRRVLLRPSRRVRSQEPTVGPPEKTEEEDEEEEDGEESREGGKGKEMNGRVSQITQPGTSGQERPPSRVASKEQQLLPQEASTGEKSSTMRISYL
attribute_measured: pEC50
Units for pEC50: none; it is -log10 of a concentration expressed in mol/L.

| compound | pEC50 |
| --- | --- |
| NCc1cccc(C2OC(CC(=O)NCc3ccccc3F)C(=O)N(Cc3ccc(-c4ccccc4)cc3)c3ccc(Cl)cc32)c1 (centres unmarked) | 8.70 |

QUERY: Fill in the blank: the reported pEC50 of NCc1cccc(C2OC(CC(=O)NCc3ccccc3F)C(=O)N(Cc3ccc(O)cc3)c3ccc(Cl)cc32)c1 (centres unmarked) is ____.
RESULT: 9.52

###

log10 of IC50 values, listed per item
target: UniProt:P32745; assay: Binding inhibition of 125I-somatostatin, CHO cell membrane fraction; settings: 125I-somatostatin binding, 25° C. for 60 minutes, read-out: Activities for human somatostatin receptor (IC50 value) SSTR3
For clarity, the numbers are log10 values of IC50 expressed in nM.

Solved entries:
| compound | log10 of IC50 |
| --- | --- |
| CC(C)(C)CN1C(=O)[C@@H](CC(=O)NCc2ccccc2F)O[C@H](c2cccc(CN)c2)c2cc(Cl)ccc21 [Example 26] | 3.85 |
| NCc1cccc(C2OC(CC(=O)NCc3ccccc3F)C(=O)N(Cc3ccc(-c4ccccc4)cc3)c3ccc(Cl)cc32)c1 (stereo not shown) [Example 5] | 0.48 |
| NCc1ccc(C2OC(CC(=O)NCc3ccccc3F)C(=O)N(Cc3ccc(-c4ccccc4)cc3)c3ccc(Cl)cc32)cc1 (stereo not shown) [Example 87] | 1.30 |

QUERY: Fill in the blank: the reported log10 of IC50 of COc1ccc(CN2C(=O)C(CC(=O)NCc3ccccc3F)OC(c3ccc(CN)s3)c3cc(Cl)ccc32)cc1 (stereo not shown) [Example 91] is ____.
RESULT: 1.60

QUERY: Fill in the blank: the reported log10 of IC50 of NCc1cccc(C2OC(CC(=O)NCc3ccccc3F)C(=O)N(Cc3ccc(O)cc3)c3ccc(Cl)cc32)c1 (stereo not shown) [Example 102] is ____.
RESULT: 1.90

QUERY: Fill in the blank: the reported log10 of IC50 of CC(C)(N)c1cccc(C2OC(CC(=O)NCc3ccccc3F)C(=O)N(Cc3ccc(-c4ccccc4)cc3)c3ccc(Cl)cc32)c1 (stereo not shown) [Example 93] is ____.
RESULT: 0.60

QUERY: Fill in the blank: the reported log10 of IC50 of CC(C)(C)CN1C(=O)[C@H](CC(=O)NCc2ccccc2F)O[C@@H](c2cccc(CN)c2)c2cc(Cl)ccc21 [Example 25] is ____.
RESULT: 2.48

###

molecular target: human somatostatin receptor SSTR2 (Homo sapiens, UniProt P30874); assay: Binding inhibition of 125I-somatostatin, CHO cell membrane fraction; conditions: 125I-somatostatin binding, 25° C. for 60 minutes, read-out: Activities for human somatostatin receptor (IC50 value) SSTR2
Sequence (P30874 whole entry): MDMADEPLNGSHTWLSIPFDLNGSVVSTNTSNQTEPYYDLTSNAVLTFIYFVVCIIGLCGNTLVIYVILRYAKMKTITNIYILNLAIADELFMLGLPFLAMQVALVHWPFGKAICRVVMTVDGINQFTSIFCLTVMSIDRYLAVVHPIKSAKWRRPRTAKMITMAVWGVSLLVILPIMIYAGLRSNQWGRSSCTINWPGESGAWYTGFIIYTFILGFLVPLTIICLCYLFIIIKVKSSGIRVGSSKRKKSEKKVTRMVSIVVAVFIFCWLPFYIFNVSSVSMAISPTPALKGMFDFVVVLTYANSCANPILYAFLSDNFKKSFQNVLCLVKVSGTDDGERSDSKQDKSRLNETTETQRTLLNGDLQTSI
attribute_measured: log10(IC50) (log10 of the value in nM)
For clarity, the numbers are log10 values of IC50 expressed in nM.

Solved entries:
| molecule | target_of_assay | attribute_measured | obs_value |
| --- | --- | --- | --- |
| CC(C)(N)c1cccc(C2OC(CC(=O)NCc3ccccc3F)C(=O)N(Cc3ccc(-c4ccccc4)cc3)c3ccc(Cl)cc32)c1 (stereo not shown) | human somatostatin receptor SSTR2 (Homo sapiens, UniProt P30874) | log10(IC50) | 2.70 |
| CC(C)(C)CN1C(=O)[C@H](CC(=O)NCc2ccccc2F)O[C@@H](c2cccc(CN)c2)c2cc(Cl)ccc21 | human somatostatin receptor SSTR2 (Homo sapiens, UniProt P30874) | log10(IC50) | 3.78 |
| NCc1cccc(C2OC(CC(=O)NCc3ccccc3F)C(=O)N(Cc3ccc(O)cc3)c3ccc(Cl)cc32)c1 (stereo not shown) | human somatostatin receptor SSTR2 (Homo sapiens, UniProt P30874) | log10(IC50) | 1.78 |

QUERY: Fill in the blank: the reported log10(IC50) of NCc1ccc(C2OC(CC(=O)NCc3ccccc3F)C(=O)N(Cc3ccc(-c4ccccc4)cc3)c3ccc(Cl)cc32)cc1 (stereo not shown) is ____.
RESULT: 2.90

QUERY: Fill in the blank: the reported log10(IC50) of NCc1cccc(C2OC(CC(=O)NCc3ccccc3F)C(=O)N(Cc3ccc(-c4ccccc4)cc3)c3ccc(Cl)cc32)c1 (stereo not shown) is ____.
RESULT: 2.00
